Reference for the values: PubChem BioAssay (NCI)

Assign growth inhibition to each entry below.
Assay: NCI Yeast Anticancer Drug Screen. Data for the bub3 strain (AID 167)
Details: S. cerevisiae bub3 mutant strain, at 50.0 µM, stronger effect = higher value
Compounds without any hit were thinned out: in the full panel of roughly 79,000, 15% have a hit.
Please respond with the number in % and leave the unit unwritten.

Q: Provide one value: measured growth inhibition of CCOC(OCC)c1ccc2c(c1)OCO2
Ans: -0.05

Q: Provide one value: measured growth inhibition of CCOP(=S)(OCC)Oc1ccc2c(c1)OC(=O)C1(Cl)C2(C)C2(Cl)C(=O)Oc3cc(OP(=S)(OCC)OCC)ccc3C12C (stereo not given)
Ans: 2.05

Q: Provide one value: measured growth inhibition of CN(C)C1C(=O)C(C(=O)NP(=O)(NCCCO)N(CCCl)CCCl)=C(O)C2(O)C(=O)C3=C(O)c4c(O)cccc4C(C)(O)C3CC12 (stereo not given)
Ans: 25.6

Q: Provide one value: measured growth inhibition of CC(=O)CC(C)=O.CC(=O)CC(C)=O.[O]=[V]
Ans: -54.6

Q: Provide one value: measured growth inhibition of O=C(Cl)C(Br)Cc1ccccc1 (stereo not given)
Ans: 28.6
